Reported koff values follow for various binders
# system: T1, human PACAP38 (human, not fully specified; C-terminal lysine is amidated; N-terminal or C-terminal biotin in the HTRF and PC-12 cell binding assays)
# T1 construct: synthetic peptide, bought; also called huPACAP (1-38)
# T1 peptide: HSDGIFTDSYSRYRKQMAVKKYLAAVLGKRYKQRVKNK
# assay-notes: SPR, Ab immobilised
measured-metric: koff

# binder, reported
measured = [
    ("anti-PACAP antibody Ab2 (antibody, human IgG1, kappa, N297A, V domains shown, full-length rabbit/human chimeric antibody) VH: QSVEESGGRLVTPGTPLTLTCTVSGFSLSGAAMNWVRQAPGKGLEWIGVIGNSGSTYYASWAKGRFTISKTSSTTVDLKMTSPTTEDTATYFCARGGGEFFIWGQGTLVTVSS VL: AQVLTQTPSPVSAAVGGTVTINCQSSESVYKNNYLSWYQQKPGQPPKFLIYQASNLADGVPSRFKGSGSGTQFTLTISDLECDDAATYYCAGGYSTYMSGFGGGTEVVVKR", "≤ 1e-05 s⁻¹"),
    ("anti-PACAP antibody Ab11 (antibody, human IgG1, kappa, N297A, V domains shown, full-length rabbit/human chimeric antibody) VH: QSVEESGGRLVTPGTPLTLTCTASGFSLSRYAMGWVRQAPGKGLEWIGDISTYGTTDYASWVNGRFTISRTSTTVTLKMTSLTTEDTATYFCARDYWLSLWGQGTLVTVSS VL: AAVLTQTPSPVSAAVGGTVTIKCQSSQSVYDNNALAWYQQKPGQPPKLLIYAASNLASGVPDRFSGSGSGTQFTLTISGVQCDDAATYYCLGGYDDAADNAFGGGTEVVVKR", "3.1e-05 s⁻¹"),
    ("anti-PACAP antibody Ab14 (antibody, human IgG1, kappa, N297A, V domains shown, full-length rabbit/human chimeric antibody) VH: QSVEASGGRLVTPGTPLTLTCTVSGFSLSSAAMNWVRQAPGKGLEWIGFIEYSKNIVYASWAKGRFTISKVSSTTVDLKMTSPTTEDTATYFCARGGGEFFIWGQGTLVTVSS VL: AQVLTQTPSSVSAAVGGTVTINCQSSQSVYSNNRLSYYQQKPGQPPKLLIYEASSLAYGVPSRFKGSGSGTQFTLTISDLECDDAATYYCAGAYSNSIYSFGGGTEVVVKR", "≤ 1e-05 s⁻¹"),
]
